Target: Nitric oxide synthase, inducible (Mus musculus) (UniProt P29477);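 further: recombinant enzyme, activity read out colorimetrically after 40 min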
Sequence (P29477 whole entry): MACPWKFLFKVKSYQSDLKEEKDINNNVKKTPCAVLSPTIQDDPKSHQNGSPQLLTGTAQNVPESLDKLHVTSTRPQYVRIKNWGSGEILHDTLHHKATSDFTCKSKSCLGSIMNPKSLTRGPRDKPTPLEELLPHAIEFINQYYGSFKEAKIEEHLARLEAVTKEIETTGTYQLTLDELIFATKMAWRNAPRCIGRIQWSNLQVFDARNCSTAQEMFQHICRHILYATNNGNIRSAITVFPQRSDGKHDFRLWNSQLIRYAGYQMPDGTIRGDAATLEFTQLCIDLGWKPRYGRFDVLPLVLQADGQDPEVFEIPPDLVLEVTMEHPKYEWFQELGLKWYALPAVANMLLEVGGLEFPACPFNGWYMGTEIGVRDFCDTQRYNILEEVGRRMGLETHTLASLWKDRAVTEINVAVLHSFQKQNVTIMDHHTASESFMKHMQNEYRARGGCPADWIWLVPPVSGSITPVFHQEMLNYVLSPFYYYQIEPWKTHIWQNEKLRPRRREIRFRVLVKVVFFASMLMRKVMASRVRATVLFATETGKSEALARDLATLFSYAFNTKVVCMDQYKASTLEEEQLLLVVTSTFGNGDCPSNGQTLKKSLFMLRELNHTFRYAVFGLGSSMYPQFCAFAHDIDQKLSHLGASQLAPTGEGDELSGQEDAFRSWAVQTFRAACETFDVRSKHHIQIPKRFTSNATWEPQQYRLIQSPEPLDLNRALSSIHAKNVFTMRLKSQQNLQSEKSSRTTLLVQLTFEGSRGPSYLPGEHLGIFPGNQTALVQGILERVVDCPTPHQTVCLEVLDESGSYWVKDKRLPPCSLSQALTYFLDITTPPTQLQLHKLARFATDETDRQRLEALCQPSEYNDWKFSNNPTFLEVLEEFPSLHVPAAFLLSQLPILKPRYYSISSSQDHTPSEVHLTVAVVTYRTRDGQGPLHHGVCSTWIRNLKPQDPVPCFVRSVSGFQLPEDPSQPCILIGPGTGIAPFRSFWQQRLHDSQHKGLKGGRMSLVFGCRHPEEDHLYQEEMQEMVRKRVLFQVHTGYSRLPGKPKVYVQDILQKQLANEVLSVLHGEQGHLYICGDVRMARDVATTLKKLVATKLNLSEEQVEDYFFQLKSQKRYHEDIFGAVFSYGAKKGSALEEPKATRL
Settings: at 1 mM
measuredAttribute: inhibition (%)

{"columns": ["compound", "measuredAttribute", "testResult"],
 "data": [
  ["O=c1occcc1O", "inhibition", 42],
  ["O=C(O)c1ccc(F)cc1O", "inhibition", 1],
  ["Nc1ccc(C(=O)O)c(O)c1", "inhibition", 8],
  ["O=C(O)c1cccc2cccnc12", "inhibition", 11],
  ["O=C(O)c1ccc[nH]1", "inhibition", 7],
  ["CCn1ccc(=O)c(O)c1C", "inhibition", -9],
  ["CCCCc1ccc(C(=O)O)nc1", "inhibition", 10],
  ["CC(=O)C1CCCC1=O (configuration not stated)", "inhibition", 29],
  ["O=C(O)c1ncccc1O", "inhibition", 46],
  ["CC(C)c1cccc(=O)c(O)c1", "inhibition", 18],
  ["Cc1cccc(C(=O)O)n1", "inhibition", 8],
  ["Cc1cc(O)nc(O)n1", "inhibition", 8],
  ["Cc1cc(=O)c(O)co1", "inhibition", -3],
  ["O=c1cccccc1O [TROPOLONE]", "inhibition", 9],
  ["Cc1ccc2cccc(O)c2n1", "inhibition", 7],
  ["O=C(O)c1cc(F)ccc1O", "inhibition", 1],
  ["O=C(O)c1cccc[n+]1[O-]", "inhibition", -1]
]}

---

Target: Neutrophil collagenase (Homo sapiens) (UniProt P22894);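 further: recombinant human MMP8 enzyme, percent inhibition read after 30 min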
Sequence (P22894 101-467 limits assumed): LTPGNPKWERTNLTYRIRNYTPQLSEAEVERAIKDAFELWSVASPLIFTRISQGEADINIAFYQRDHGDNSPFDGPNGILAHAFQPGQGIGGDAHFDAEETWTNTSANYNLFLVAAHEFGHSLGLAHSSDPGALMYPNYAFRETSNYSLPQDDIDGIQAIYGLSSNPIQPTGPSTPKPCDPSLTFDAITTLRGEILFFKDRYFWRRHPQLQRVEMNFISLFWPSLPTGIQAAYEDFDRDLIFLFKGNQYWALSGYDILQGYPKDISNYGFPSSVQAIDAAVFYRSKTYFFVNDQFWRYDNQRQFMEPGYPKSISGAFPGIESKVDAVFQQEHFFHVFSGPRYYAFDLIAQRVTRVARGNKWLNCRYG
Conditions: at 1 mM

{"columns": ["molSmiles", "inhibition [%]"],
 "data": [
  ["CCn1ccc(=O)c(O)c1C", 29],
  ["Nc1cccc(C(=O)O)c1O", 67],
  ["COc1ccccc1S", 26],
  ["O=C(O)c1cc(F)ccc1O", -1],
  ["Nc1cc(=O)nc(N)[nH]1", 4],
  ["COc1ccccc1O", 4],
  ["O=C(O)c1cc(O)ccc1O", 1],
  ["Oc1cc(O)nc(S)n1", 25],
  ["O=C(O)c1cccc(=O)n1O", 89],
  ["O=C(O)c1cccnc1C(=O)O", 14],
  ["O=c1cccccc1O", 100],
  ["Cc1ccc(O)c(C(=O)O)c1", 26],
  ["Cc1occc(=O)c1O", 19],
  ["Cn1cccc(O)c1=S", 96],
  ["O=C(O)c1ccc(F)cc1O", 4],
  ["O=C(O)c1c(O)cccc1O", -5],
  ["Cc1occc(=S)c1O", 101]
]}

---

Target: Lethal factor (Bacillus anthracis) (UniProt P15917)
Sequence (P15917 whole entry): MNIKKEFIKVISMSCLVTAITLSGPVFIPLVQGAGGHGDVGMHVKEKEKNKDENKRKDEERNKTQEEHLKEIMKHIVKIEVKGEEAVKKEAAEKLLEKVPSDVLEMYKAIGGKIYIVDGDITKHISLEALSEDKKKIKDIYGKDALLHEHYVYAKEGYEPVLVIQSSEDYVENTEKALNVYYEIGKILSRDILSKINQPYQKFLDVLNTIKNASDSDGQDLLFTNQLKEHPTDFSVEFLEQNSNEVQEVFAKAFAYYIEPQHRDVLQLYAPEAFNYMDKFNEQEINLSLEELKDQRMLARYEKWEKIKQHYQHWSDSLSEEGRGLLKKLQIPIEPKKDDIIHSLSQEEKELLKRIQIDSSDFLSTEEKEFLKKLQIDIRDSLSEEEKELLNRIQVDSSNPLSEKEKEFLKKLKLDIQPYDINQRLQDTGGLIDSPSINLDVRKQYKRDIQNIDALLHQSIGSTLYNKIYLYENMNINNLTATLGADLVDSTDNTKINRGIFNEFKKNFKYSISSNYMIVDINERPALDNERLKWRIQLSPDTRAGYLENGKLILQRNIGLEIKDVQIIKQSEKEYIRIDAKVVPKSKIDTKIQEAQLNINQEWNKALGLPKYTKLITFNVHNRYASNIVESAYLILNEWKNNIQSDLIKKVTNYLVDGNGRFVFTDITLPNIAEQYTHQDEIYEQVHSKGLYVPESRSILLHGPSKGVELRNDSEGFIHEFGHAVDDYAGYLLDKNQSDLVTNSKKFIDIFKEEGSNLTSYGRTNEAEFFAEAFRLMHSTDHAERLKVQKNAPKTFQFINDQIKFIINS
Settings: at 1 mM
Lab note: compare inhibition against 30%. Equal or greater, write yes. Smaller, write no.

{"columns": ["compound", "assignedCategory"],
 "data": [
  ["Cc1ccc2cccc(O)c2n1", "yes"],
  ["Cc1ccc(S(N)(=O)=O)cc1", "no"],
  ["O=C(O)c1ccc2ccccc2n1", "yes"],
  ["CCc1c(O)c(=O)ccn1C", "no"],
  ["CC(=O)C(Cl)C(C)=O", "no"],
  ["Oc1ccc2ccccc2c1O", "yes"],
  ["O=C(O)c1cccnc1C(=O)O", "yes"],
  ["Cc1nc(O)nc(O)c1C", "no"],
  ["CC(=O)NO [ACETOHYDROXAMIC ACID]", "no"],
  ["O=c1ccc2ccccc2[nH]1", "yes"],
  ["c1ccc(CNCc2ccccn2)nc1", "yes"],
  ["Cc1cccc(C(=O)O)c1O", "no"],
  ["O=c1cc[nH]c(=S)[nH]1", "yes"],
  ["CCn1ccc(=O)c(O)c1C", "no"],
  ["O=C(O)c1nccc2ccccc12", "yes"],
  ["Cc1cccc(C(=O)O)n1", "yes"]
]}

Sourced from ChEMBL document CHEMBL1649420
